target: recombinant human PAI-1 (Homo sapiens, UniProt P05121); assay: Test Example 1: human PAI-1 inhibitory activity (tPA fluorogenic substrate, pH7.5 Tris buffer); type: biochemical; design: purchased Molecular Innovations, Inc; settings: compound 25 μM; Tris buffer pH7.5
Sequence (P05121 24-402): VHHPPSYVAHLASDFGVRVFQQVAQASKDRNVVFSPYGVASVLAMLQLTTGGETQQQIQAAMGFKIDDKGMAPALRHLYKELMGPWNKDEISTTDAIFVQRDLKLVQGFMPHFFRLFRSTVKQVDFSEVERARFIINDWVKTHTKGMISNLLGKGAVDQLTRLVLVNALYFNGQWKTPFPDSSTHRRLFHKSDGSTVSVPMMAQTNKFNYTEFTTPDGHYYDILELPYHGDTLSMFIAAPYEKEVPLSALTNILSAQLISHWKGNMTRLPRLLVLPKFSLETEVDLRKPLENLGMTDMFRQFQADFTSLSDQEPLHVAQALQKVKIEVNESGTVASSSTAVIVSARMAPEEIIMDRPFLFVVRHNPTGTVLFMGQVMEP
reported.endpoint: Inhibition Rate of Human PAI-1 Activity (%)

smiles.notation	units.of.measure	value.observed
CC(C)(C)c1ccc(COc2ccc(-c3ccc(C(C)(C)C)cc3)cc2/C=C/C(=O)O)cc1	%	94

[1] CC(C)(C)c1ccc(-c2ccc(OCc3ccccc3OC(F)(F)F)c(CCC(=O)O)c2)cc1
[2] COc1ccccc1COc1ccc(-c2ccc(OC(F)(F)F)cc2)cc1CCC(=O)O
[3] CSc1ccc(-c2ccc(OCc3ccc(C(C)(C)C)cc3)c(/C=C/C(=O)O)c2)cc1
input: Please order the records by their reported Inhibition Rate of Human PAI-1 Activity (%), lowest number first. Submit the labels in the order that the ranking request calls for.
output: 3, 2, 1

----------
biological target: recombinant human PAI-1 (Homo sapiens, UniProt P05121); experiment: Test Example 1: human PAI-1 inhibitory activity (tPA fluorogenic substrate, pH7.5 Tris buffer); assay type: biochemical; design: purchased Molecular Innovations, Inc; conditions: compound 10 μM; Tris buffer pH7.5
reported.endpoint: Inhibition Rate of Human PAI-1 Activity (%)

smiles.notation	value.observed
COc1ccccc1-c1ccc(OCc2ccc(C(C)(C)C)cc2)c(/C=C/C(=O)O)c1	46
CSc1ccc(-c2ccc(OCc3ccc(C(C)(C)C)cc3)c(/C=C/C(=O)O)c2)cc1	25
CC(C)(C)c1ccc(COc2ccc(-c3ccccc3OC(F)(F)F)cc2/C=C/C(=O)O)cc1	72
CC(C)(C)c1ccc(-c2ccc(OCc3ccccc3)c(CCC(=O)O)c2)cc1	50
CC(C)(C)c1ccc(COc2ccc(-c3ccccc3OC(F)(F)F)cc2CCC(=O)O)cc1	80
CCCCc1ccc(-c2ccc(OCc3ccc(C(C)(C)C)cc3)c(CCC(=O)O)c2)cc1	66

[A] CC(C)(C)c1ccc(COc2ccc(-c3ccc(C(C)(C)C)cc3)cc2CCC(=O)O)cc1
[B] CC(C)(C)c1ccc(COc2ccc(-c3ccc(OC(F)(F)F)cc3)cc2/C=C\C(=O)O)cc1
input: Field: lower recorded Inhibition Rate of Human PAI-1 Activity (%) (choose A or B ) Please respond with the label that marks your chosen entry.
output: A

----------
biological target: recombinant human PAI-1 (Homo sapiens, UniProt P05121); experiment: Test Example 1: human PAI-1 inhibitory activity (tPA fluorogenic substrate, pH7.5 Tris buffer); assay type: biochemical; parameters: purchased Molecular Innovations, Inc; details: compound 10 μM; Tris buffer pH7.5
reported.endpoint: Inhibition Rate of Human PAI-1 Activity (%)

smiles.notation	assay.target	value.observed
CC(C)(C)c1ccc(-c2ccc(OCc3ccc(OC(F)(F)F)cc3)c(/C=C/C(=O)O)c2)cc1	recombinant human PAI-1 (Homo sapiens, UniProt P05121)	69
COc1ccc(COc2ccc(-c3ccc(OC(F)(F)F)cc3)cc2CCC(=O)O)cc1	recombinant human PAI-1 (Homo sapiens, UniProt P05121)	35
O=C(O)/C=C\c1cc(-c2ccc(OC(F)(F)F)cc2)ccc1OCc1ccccc1	recombinant human PAI-1 (Homo sapiens, UniProt P05121)	11
COc1ccc(-c2ccc(OCc3ccc(C(C)(C)C)cc3)c(/C=C/C(=O)O)c2)cc1	recombinant human PAI-1 (Homo sapiens, UniProt P05121)	47
CC(C)(C)c1ccc(COc2ccc(-c3cccc(OC(F)(F)F)c3)cc2CCC(=O)O)cc1	recombinant human PAI-1 (Homo sapiens, UniProt P05121)	74
CC(C)(C)c1ccc(Oc2ccc(-c3ccc(OC(F)(F)F)cc3)cc2/C=C\C(=O)O)cc1	recombinant human PAI-1 (Homo sapiens, UniProt P05121)	94
CC(C)(C)c1ccc(COc2ccc(-c3ccc(C(C)(C)C)cc3)cc2/C=C/C(=O)O)cc1	recombinant human PAI-1 (Homo sapiens, UniProt P05121)	56

[A] CN(C(=O)C(=O)O)c1cc(-c2ccc(OC(F)(F)F)cc2)ccc1OCc1ccc(C(C)(C)C)cc1
[B] CC(C)(C)c1ccc(COc2ccc(-c3cccc(C(=O)O)c3)cc2CCC(=O)O)cc1
input: Hey, between A and B which has a smaller measured Inhibition Rate of Human PAI-1 Activity (%)? Select an item and report its label.
output: B
(B: 9%, A: 67%)
